Quick reference for growth inhibition among some molecules
- procedure.summary: NCI Yeast Anticancer Drug Screen. Data for the sgs1 mgt1 strain (AID 161);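 also: 0% = growth of cultures given vehicle only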
- experimental.setup: S. cerevisiae sgs1 mgt1 strain, at 5.0 µM (retest, dose inferred, filed as 0.5), active compounds read high
About 79,000 compounds went through this panel and 15% of them were active in at least one assay; those are over-represented in the sample as a whole.
I only need the number, in %, no unit after it.

Answered cases to consult:
>>> print(df.to_string())
                           structure_string       measure_name  numeric_readout
0  C[N+](C)(C)CCCCCCCCCCC(=O)N/N=C/c1ccc([N+](=O)[O-])o1  growth inhibition                6
1  O=C(O)/C=C/c1ccc2c(c1)CC1(Cc3ccccc3C1)C2  growth inhibition               84
2  COc1ccc(SC2=C(N(C)C(C)=O)C(=O)c3ccccc3C2=O)cc1  growth inhibition               97

Fill blank: measured growth inhibition of the molecule N=C(N)Cc1ccc(NC(=O)c2ccc(C(=O)Nc3ccc(CC(=N)N)cc3)cc2)cc1 is ____.
-11

Name the reported growth inhibition value associated with the molecule CCCCn1cnc2c(SCc3ccccc3[N+](=O)[O-])nc(N)nc21
1

Can you look up the measured growth inhibition of COc1ccc(OC)c(CC(Cl)(C#N)C#N)c1 for me?
48

Look up growth inhibition for this molecule: O=C(O)CCc1ccc2ccccc2c1
1

Any idea what its growth inhibition is? The molecule is CC(C)N=Cc1cc(Br)cc(Br)c1O.CC(C)N=Cc1cc(Br)cc(Br)c1O.[Co]
87

Record request: growth inhibition value, item Cc1ccc(C(=O)CC(O)(C(F)(F)F)C(F)(F)F)cc1[N+](=O)[O-]
3

Name the reported growth inhibition value associated with the molecule [O-][n+]1c2c(cc3ccccc31)Cc1ccccc1-2
-3

Give its growth inhibition value. Item: COc1ccc(SC2=C(N(C)C)C(=O)c3ccccc3C2=O)cc1
2

###

- procedure.summary: NCI Yeast Anticancer Drug Screen. Data for the cln2 rad14 strain (AID 165);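 also: 0% = growth equal to vehicle treated cultures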
- experimental.setup: S. cerevisiae cln2 rad14 strain, at 50.0 µM (retest, dose inferred, filed as 5.0), active compounds read high
Compounds without any hit were thinned out: in the full panel of roughly 79,000, 15% have a hit. Active and inactive are the calls of the source. No stated cut-off is given here; in the data, active means growth inhibition above about 70%; inactive means the rest.
Entries and their measured growth inhibition follow.

Consider the following illustrative entries.
In [3]: df
Out[3]:
                                   compound        result
0  CC(C)NC(=O)OCc1c(CO)c2c(n1C)-c1ccccc1CC2  95% (active)
1  CC(C)(Cl)C(Cl)CC/C(CBr)=C(\Cl)CBr (stereo unspecified)  95% (active)

For the compound CCCC(=O)OCC1CC2C=CC1C2 (stereo unspecified) , what growth inhibition is on record?
3% (inactive)

Record request: growth inhibition value, item C=C1CC(c2ccc(OCCCN3C(=O)c4ccccc4C3=O)cc2)OC1=O (stereo unspecified)
63% (inactive)

What value of measured growth inhibition is listed for N#CS/C=C/SC#N ?
100% (active)

Endpoint output: growth inhibition of CCN(CC)CCO/N=C1\CC[C@H]2[C@@H]3CCc4cc(OC)ccc4[C@H]3CC[C@]12C . Value?
98% (active)

Recorded growth inhibition of C=C1OC(=O)C(=O)N1CC(=O)O , please.
-69% (inactive)

Any idea what its growth inhibition is? The compound is Cc1cc(N(CCCOS(C)(=O)=O)CCCOS(C)(=O)=O)ccc1C=Nc1cc(Br)c(O)c(Br)c1
-5% (inactive)

Which growth inhibition value belongs to CC1=C(C2CO2)C(=O)C(C)=C(C2CO2)C1=O (stereo unspecified) ?
99% (active)

Entry under review: OCCN=C1c2ccccc2C2C(c3ccccc31)C1c3ccccc3C(=NCCO)c3ccccc3C21 (stereo unspecified) . Reported growth inhibition?
18% (inactive)

Using the record for CCOC(=O)C1=C(N)N(S(=O)(=O)c2ccc(C)cc2)CCC(C(=O)OC)=C1 , report its growth inhibition.
-6% (inactive)
